target: Human GPR120 short form (Homo sapiens, UniProt Q5NUL3)
Construct: expressed in transfected cells
Sequence (Q5NUL3 1-361): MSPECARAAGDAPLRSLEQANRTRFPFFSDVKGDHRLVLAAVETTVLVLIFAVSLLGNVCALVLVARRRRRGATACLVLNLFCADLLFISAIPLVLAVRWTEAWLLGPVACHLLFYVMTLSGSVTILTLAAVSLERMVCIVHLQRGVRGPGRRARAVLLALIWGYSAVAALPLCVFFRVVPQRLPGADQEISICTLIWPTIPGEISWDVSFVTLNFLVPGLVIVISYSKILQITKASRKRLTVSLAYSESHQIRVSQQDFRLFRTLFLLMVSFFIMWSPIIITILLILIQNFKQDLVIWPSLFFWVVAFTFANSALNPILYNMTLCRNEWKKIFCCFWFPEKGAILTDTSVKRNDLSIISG
procedure-details: Human GPR120 calcium flux assay, Procedure Calcium A
Assay type: cell-based
condition-notes: HEK-293 cells expressing human GPR120 short form, 2500 cells/well, FLIPR
measure: EC50 (nM)

Below: 5 compounds and their reported EC50.
[[record]]
structure = "Cc1c(CCC(=O)O)ccc(OCc2c(C(F)(F)F)ccn2-c2ccc(Cl)cc2)c1C"
measured_number = 993

[[record]]
structure = "Cc1c(CCC(=O)O)ccc(OCc2cccn2-c2ccc(Br)cc2)c1C"
measured_number = 1040

[[record]]
structure = "COc1ccc(-n2ccc(C(F)(F)F)c2COc2ccc(CCCO)c(F)c2F)cn1"
measured_number = 395

[[record]]
structure = "Cc1c(CCCO)ccc(OCc2c(C(F)(F)F)ccn2-c2ccc(Br)cc2)c1C"
measured_number = 1300

[[record]]
structure = "COc1ccc(-n2ccc(C(F)(F)F)c2COc2c(F)cc(CCCO)cc2F)cc1"
measured_number = 222


P: COc1ccc(-n2ccc(C(F)(F)F)c2COc2c(F)cc(CCCO)cc2F)cn1
Q: Cc1ccc(-n2ccc(C(F)(F)F)c2COc2ccc(CCCO)c(C)c2C)cc1
R: OCCCc1ccc(OCc2c(Br)ccn2-c2ccc(Cl)cc2)c(F)c1F
Ascending sort, EC50. Enter labels, ranked according to the request.
P, R, Q

====

target: Human GPR120 short form (Homo sapiens, UniProt Q5NUL3)
Construct: expressed in transfected cells
Sequence (Q5NUL3 1-361): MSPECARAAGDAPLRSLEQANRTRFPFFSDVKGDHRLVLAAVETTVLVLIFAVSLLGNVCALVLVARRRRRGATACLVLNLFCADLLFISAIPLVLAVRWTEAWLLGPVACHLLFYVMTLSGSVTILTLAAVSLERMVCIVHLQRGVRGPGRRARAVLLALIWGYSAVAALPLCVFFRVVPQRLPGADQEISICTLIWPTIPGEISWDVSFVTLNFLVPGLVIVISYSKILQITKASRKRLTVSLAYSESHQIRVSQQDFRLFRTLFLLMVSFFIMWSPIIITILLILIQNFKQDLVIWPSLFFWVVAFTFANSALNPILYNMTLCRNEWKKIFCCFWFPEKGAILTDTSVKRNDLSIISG
procedure-details: Human GPR120 calcium flux assay, Procedure Calcium B
Assay type: cell-based
condition-notes: HEK-293 cells expressing human GPR120 short form, 4200 cells/well, FLIPR
measure: EC50 (nM)

P: CCc1ccc(-n2ccc(C(F)(F)F)c2COc2c(F)cc(CCC(=O)O)cc2F)cn1 [Compound 56]
Q: Cc1ccc(-n2ccc(C(F)(F)F)c2COc2c(F)cc(CCC(=O)O)cc2F)cc1 [Compound 39]
Smaller EC50 value, P vs Q ? Lab note: record the label of whichever item you select.
Q
(Q: 50 nM, P: 877 nM)

====

target: Human GPR120 short form (Homo sapiens)
Construct: expressed in transfected cells
procedure-details: Human GPR120 calcium flux assay, Procedure Calcium B
Format: cell-based
condition-notes: HEK-293 cells expressing human GPR120 short form, 4200 cells/well, FLIPR
pEC50: −log10 of the molar value.
measure: pEC50

1: CC(Cc1cc(F)c(OCc2c(C(F)(F)F)ccn2-c2ccc(Cl)cc2)c(F)c1)C(=O)O (stereo not shown)
2: O=C(O)CCc1ccc(OCc2c(C(F)(F)F)ccn2-c2ccc(F)cc2)cc1C(F)(F)F
3: Cc1ccc(-n2ccc(C(F)(F)F)c2COc2c(F)cc(CCCO)cc2F)cn1
4: Cc1c(CCC(=O)O)ccc(OCc2c(C(F)(F)F)ccn2-c2cccc(F)c2)c1C
Lab note: pEC50 ranking, ascending, for the listed compounds. Enter labels, ranked according to the request.
2, 4, 1, 3

====

target: UniProt Q5NUL3
procedure-details: Human GPR120 DiscoveRx PathHunter β-Arrestin assay, Procedure β-arrestin B
condition-notes: PathHunter CHO-K1 GPR120S β-Arrestin cell line, 5000 cells/well
measure: EC50 (nM)

Below: 2 compounds and their reported EC50.
[[record]]
compound = "Cc1c(CCC(=O)O)ccc(OCc2c(C(F)(F)F)ccn2-c2ccc(F)cc2F)c1C"
measure = "EC50"
measured_number = 1060

[[record]]
compound = "CC(Cc1cc(F)c(OCc2c(C(F)(F)F)ccn2-c2ccc(F)cc2)c(F)c1)C(=O)O (stereo not drawn)"
measure = "EC50"
measured_number = 809


I: Cc1ccc(-n2ccc(C(F)(F)F)c2COc2c(F)cc(CCC(=O)O)cc2F)c(F)c1
II: CC(Cc1cc(F)c(OCc2c(C(F)(F)F)ccn2-c2ccc(Cl)cc2)c(F)c1)C(=O)O (stereo not drawn)
III: O=C(O)CCc1cc(F)c(OCc2c(C(F)(F)F)ccn2-c2ccc(F)c(F)c2)c(F)c1
IV: OCCCc1ccc(OCc2c(C(F)(F)F)ccn2-c2ccc(Cl)cc2)c(F)c1F
Ascending sort, EC50. Enter labels, ranked according to the request.
IV, II, I, III
(IV: 63 nM, II: 417 nM, I: 624 nM, III: 1120 nM)

====

target: Human GPR120 short form (Homo sapiens, UniProt Q5NUL3)
Construct: expressed in transfected cells
Sequence (Q5NUL3 1-361): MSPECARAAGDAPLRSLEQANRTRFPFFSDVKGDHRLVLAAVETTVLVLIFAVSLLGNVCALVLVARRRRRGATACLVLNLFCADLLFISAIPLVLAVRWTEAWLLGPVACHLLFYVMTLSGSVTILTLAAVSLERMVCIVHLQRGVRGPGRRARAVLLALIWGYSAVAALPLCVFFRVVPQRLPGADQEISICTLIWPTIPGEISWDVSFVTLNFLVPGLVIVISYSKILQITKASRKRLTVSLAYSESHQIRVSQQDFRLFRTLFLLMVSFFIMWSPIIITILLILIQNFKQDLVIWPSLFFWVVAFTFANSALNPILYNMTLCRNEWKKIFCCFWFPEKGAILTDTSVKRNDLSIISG
procedure-details: Human GPR120 calcium flux assay, Procedure Calcium B
Assay type: cell-based
condition-notes: HEK-293 cells expressing human GPR120 short form, 4200 cells/well, FLIPR
measure: EC50 (µM)

[[record]]
structure = "CCc1ccc(-n2ccc(C(F)(F)F)c2COc2ccc(CCC(=O)O)c(F)c2F)cn1"
target = "Human GPR120 short form (Homo sapiens, UniProt Q5NUL3)"
measure = "EC50"
measured_number = 0.162

[[record]]
structure = "Cc1c(CCCO)ccc(OCc2c(Br)ccn2-c2ccc(Cl)cc2)c1C"
target = "Human GPR120 short form (Homo sapiens, UniProt Q5NUL3)"
measure = "EC50"
measured_number = 0.899

[[record]]
structure = "COc1ccc(-n2ccc(C(F)(F)F)c2COc2ccc(CCC(=O)O)c(F)c2F)cn1"
target = "Human GPR120 short form (Homo sapiens, UniProt Q5NUL3)"
measure = "EC50"
measured_number = 0.077

[[record]]
structure = "Cc1c(CCC(=O)O)ccc(OCc2c(C(F)(F)F)ccn2-c2ccc(Cl)cc2)c1C"
target = "Human GPR120 short form (Homo sapiens, UniProt Q5NUL3)"
measure = "EC50"
measured_number = 0.088

[[record]]
structure = "COc1ccc(-n2ccc(C(F)(F)F)c2COc2ccc(CCCO)c(F)c2F)cc1"
target = "Human GPR120 short form (Homo sapiens, UniProt Q5NUL3)"
measure = "EC50"
measured_number = 0.054

[[record]]
structure = "O=C(O)CCc1ccc(OCc2c(Br)ccn2-c2ccc(Cl)cc2)c(F)c1F"
target = "Human GPR120 short form (Homo sapiens, UniProt Q5NUL3)"
measure = "EC50"
measured_number = 0.161


P: OCCCc1ccc(OCc2c(C(F)(F)F)ccn2-c2ccc(Cl)cc2)c(F)c1F
Q: Cc1ccc(-n2ccc(C(F)(F)F)c2COc2ccc(CCC(=O)O)c(F)c2F)cn1
Smaller EC50 value, P vs Q ? Lab note: record the label of whichever item you select.
P
(P: 0.162 µM, Q: 0.428 µM)

====

target: Human GPR120 short form (Homo sapiens)
Construct: expressed in transfected cells
Sequence (Q5NUL3 1-361): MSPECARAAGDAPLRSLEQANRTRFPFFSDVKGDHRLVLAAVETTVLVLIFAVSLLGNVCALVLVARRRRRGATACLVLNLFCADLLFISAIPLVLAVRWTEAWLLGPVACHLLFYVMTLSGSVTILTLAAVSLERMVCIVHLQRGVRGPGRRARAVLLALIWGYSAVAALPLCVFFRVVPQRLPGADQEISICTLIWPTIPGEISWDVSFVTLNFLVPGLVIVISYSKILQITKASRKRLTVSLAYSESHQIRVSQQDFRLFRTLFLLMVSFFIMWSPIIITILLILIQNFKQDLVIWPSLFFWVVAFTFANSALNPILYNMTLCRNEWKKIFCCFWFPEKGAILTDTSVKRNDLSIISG
procedure-details: Human GPR120 calcium flux assay, Procedure Calcium A
Assay type: cell-based
condition-notes: HEK-293 cells expressing human GPR120 short form, 2500 cells/well, FLIPR
measure: EC50 (nM)

Below: 2 compounds and their reported EC50.
[[record]]
structure = "OCCCc1ccc(OCc2c(C(F)(F)F)ccn2-c2ccc(Cl)cc2)c(F)c1F"
measure = "EC50"
measured_number = 1010

[[record]]
structure = "COc1ccc(-n2ccc(C(F)(F)F)c2COc2c(F)cc(CCC(=O)O)cc2F)cc1"
measure = "EC50"
measured_number = 641


a: OCCCc1ccc(OCc2c(C(F)(F)F)ccn2-c2ccc(Br)cc2)c(F)c1F
b: CCc1ccc(-n2ccc(C(F)(F)F)c2COc2ccc(CCCO)c(F)c2F)cc1
Could you please tell me which of these two has the higher EC50: a or b ? Lab note: record the label of whichever item you select.
b
(b: 1260 nM, a: 709 nM)
